- tgt: T1, human DC-CK (human, UniProt P55774 21-89)
- T1 sequence (looked up): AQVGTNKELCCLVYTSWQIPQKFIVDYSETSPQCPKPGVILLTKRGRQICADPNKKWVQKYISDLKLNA
- test.name: ELISA, supernatant

{"binder": "mouse monoclonal antibody 11K2 (antibody, V domains shown, mouse IgG1; also called 11K2.1; mu11K2) VH: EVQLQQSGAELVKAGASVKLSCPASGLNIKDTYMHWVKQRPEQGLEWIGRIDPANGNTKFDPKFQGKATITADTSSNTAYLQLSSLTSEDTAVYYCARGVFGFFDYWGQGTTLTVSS VL: DIQMTQSSSSFSVSLGDRVTITCKATEDIYNRLAWYQQKPGSAPRLLISGATSLETGVPSRFSGSGSGKDYTLSITSLQTEDVATYYCQQFWSAPYTFGGGTKLEIK", "binding result": "no binding"}
{"binder": "monoclonal antibody 6D21 (antibody, mouse IgG1, V domains shown, mouse IgG1; also called 6D21.1) VH: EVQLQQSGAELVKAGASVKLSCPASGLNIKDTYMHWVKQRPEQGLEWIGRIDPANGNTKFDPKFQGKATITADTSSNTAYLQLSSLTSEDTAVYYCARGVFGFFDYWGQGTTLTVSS VL: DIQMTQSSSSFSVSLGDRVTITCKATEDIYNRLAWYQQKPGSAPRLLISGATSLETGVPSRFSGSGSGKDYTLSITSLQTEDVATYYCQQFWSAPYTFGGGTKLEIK", "binding result": "no binding"}
